biological target: Rabbit skeletal myosin; test: Skeletal muscle myosin II actin-activated ATPase assay; conditions: 20 nM skeletal muscle myosin II; read-out: SKMMII KI
I'd be grateful if you could share measured pKi for these entries.
The meaning of pKi here: minus log10 of the concentration in molar units.

Task: Any idea what its pKi is? The compound is Cc1cc(N2CC[C@@]3(O)C(=O)c4cc(Cl)ccc4N=C23)ccc1C#N [BPN-0026457]
Output: 4.82

Task: Proceed to Cc1cc2c(s1)C(=O)[C@]1(O)CCN(c3ccc4ncccc4c3)C1=N2 [BPN-0027181]
Output: 5.51

Task: Proceed to Cc1cc2c(cc1F)C(=O)[C@]1(O)CCN(c3ccccc3)C1=N2 [BPN-0026669]
Output: 5.92

Task: Proceed to Cc1cc2c(cc1C(F)(F)F)N=C1N(c3ccc4ccoc4c3)CC[C@@]1(O)C2=O [BPN-0027108]
Output: 5.00

Task: Proceed to CCc1cc2c(s1)N=C1N(c3ccc(C)cc3)CC[C@@]1(O)C2=O [BPN-0026774]
Output: 5.96

Task: Proceed to Cc1cc2c(cc1C)C(=O)[C@]1(O)CCN(c3ccc4scnc4c3)C1=N2 [BPN-0027121]
Output: 5.57

Task: Proceed to Cc1cc2c(cc1C)C(=O)[C@]1(O)CCN(c3ccc(C#N)cc3)C1=N2 [BPN-0026499]
Output: 6.74

Task: Proceed to O=C1c2cc(Cl)ccc2NC2N(c3ccc4ccoc4c3)CC[C@@]12O (stereo partly drawn) [BPN-0026401]
Output: 5.48

Task: Proceed to Cc1cc(N2CC[C@@]3(O)C(=O)c4c(sc(C)c4C)NC23)ccc1C#N (stereo partly drawn) [BPN-0026886]
Output: 5.38

Task: Proceed to Cc1cc2c(cc1C(F)(F)F)N=C1N(c3ccc(C#N)cc3)CC[C@@]1(O)C2=O [BPN-0027071]
Output: 4.70

Task: Proceed to Cc1cc2c(cc1C)C(=O)[C@]1(O)CCN(c3ccc4sc(C(C)C)nc4c3)C1=N2 [BPN-0028919]
Output: 5.85

Task: Proceed to Cc1cc2c(cc1F)C(=O)[C@]1(O)CCN(c3ccccc3)C1=N2 [BPN-0026387]
Output: 5.92

---

I'd be grateful if you could share measured Photostability 4 hours for these entries.
assay: Photostability, percentage remaining undegraded under illumination or in the dark; conditions: percentage remaining undegraded after 4 hours illumination
Enter your answer as a number in %; do not include the unit.

Task: Any idea what its Photostability 4 hours is? The molecule is Cc1sc2c(c1C)C(=O)[C@]1(O)CCN(c3ccc4ncccc4c3)C1=N2 [BPN-0027376]
Output: 90.4

Task: Proceed to Cc1cc2c(cc1C)C(=O)[C@]1(O)CCN(c3ccc4scnc4c3)C1=N2 [BPN-0027121]
Output: 75.6

Task: Proceed to Cc1ccc2c(c1)C(=O)[C@]1(O)CCN(c3ccn4nccc4c3)C1=N2 [BPN-0027396]
Output: 85.5

Task: Proceed to Cc1cc2c(cc1C)C(=O)[C@]1(O)CCN(c3ccn4nccc4c3)C1=N2 [BPN-0027488]
Output: 49.4

Task: Proceed to Cc1ccc2c(c1)C(=O)[C@]1(O)CCN(c3ccc4sc(C)nc4c3)C1=N2 [BPN-0027411]
Output: 81.8

Task: Proceed to Cc1ccc2c(c1)C(=O)[C@]1(O)CCN(c3ccc4nsnc4c3)C1=N2 [BPN-0027394]
Output: 92.2

Task: Proceed to O=C1c2c(sc3ccccc23)N=C2N(c3ccccc3)CC[C@@]12O [BPN-0026785]
Output: 95.8

---

target: Bovine cardiac myosin (Bos taurus (Bovine)); test: Cardiac muscle myosin II actin-activated ATPase assay (NADH-coupled); assay type: biochemical; set-up: key: NMII-sel: no Ki value for cardiac myosin II could be determined; the compounds had no detectable inhibitory properties versus the cardiac myosin II; conditions: cardiac myosin II Ki over nonmuscle myosin II EC50
readout.label: Ratio CMMII:NMII Ki/EC50

* Cc1cc2c(cc1C)C(=O)[C@]1(O)CCN(c3ccn4nccc4c3)C1=N2 | NMII-sel
* CCc1cc2c(s1)N=C1N(c3ccc4ccoc4c3)CC[C@@]1(O)C2=O | NMII-sel
* Cc1ccc(N2CC[C@@]3(O)C(=O)c4cc(C)c(C)cc4N=C23)cc1 | 3.5
* Cc1cc2c(cc1C)C(=O)[C@]1(O)CCN(c3ccc4ncsc4c3)C1=N2 | 26.5

Task: Any idea what its Ratio CMMII:NMII Ki/EC50 is? The compound is COc1ccc2cc(N3CC[C@@]4(O)C(=O)c5cc(C)ccc5N=C34)ccc2n1
Output: NMII-sel

Task: Proceed to Cc1cc2c(cc1F)C(=O)[C@]1(O)CCN(c3ccc(C)c(Cl)c3)C1=N2
Output: NMII-sel

Task: Proceed to Cc1cc2c(s1)C(=O)[C@]1(O)CCN(c3cccc(Br)c3)C1=N2
Output: 3.7

Task: Proceed to Cc1ccc2c(c1)C(=O)[C@]1(O)CCN(c3ccc4nc(C)ccc4c3)C1=N2
Output: 29.4

---

target: Bovine cardiac myosin (Bos taurus (Bovine), UniProt Q9BE39); test: Cardiac muscle myosin II actin-activated ATPase assay (NADH-coupled); type: biochemical; details: cardiac myosin II Ki over nonmuscle myosin II EC50
Sequence (Q9BE39 whole entry): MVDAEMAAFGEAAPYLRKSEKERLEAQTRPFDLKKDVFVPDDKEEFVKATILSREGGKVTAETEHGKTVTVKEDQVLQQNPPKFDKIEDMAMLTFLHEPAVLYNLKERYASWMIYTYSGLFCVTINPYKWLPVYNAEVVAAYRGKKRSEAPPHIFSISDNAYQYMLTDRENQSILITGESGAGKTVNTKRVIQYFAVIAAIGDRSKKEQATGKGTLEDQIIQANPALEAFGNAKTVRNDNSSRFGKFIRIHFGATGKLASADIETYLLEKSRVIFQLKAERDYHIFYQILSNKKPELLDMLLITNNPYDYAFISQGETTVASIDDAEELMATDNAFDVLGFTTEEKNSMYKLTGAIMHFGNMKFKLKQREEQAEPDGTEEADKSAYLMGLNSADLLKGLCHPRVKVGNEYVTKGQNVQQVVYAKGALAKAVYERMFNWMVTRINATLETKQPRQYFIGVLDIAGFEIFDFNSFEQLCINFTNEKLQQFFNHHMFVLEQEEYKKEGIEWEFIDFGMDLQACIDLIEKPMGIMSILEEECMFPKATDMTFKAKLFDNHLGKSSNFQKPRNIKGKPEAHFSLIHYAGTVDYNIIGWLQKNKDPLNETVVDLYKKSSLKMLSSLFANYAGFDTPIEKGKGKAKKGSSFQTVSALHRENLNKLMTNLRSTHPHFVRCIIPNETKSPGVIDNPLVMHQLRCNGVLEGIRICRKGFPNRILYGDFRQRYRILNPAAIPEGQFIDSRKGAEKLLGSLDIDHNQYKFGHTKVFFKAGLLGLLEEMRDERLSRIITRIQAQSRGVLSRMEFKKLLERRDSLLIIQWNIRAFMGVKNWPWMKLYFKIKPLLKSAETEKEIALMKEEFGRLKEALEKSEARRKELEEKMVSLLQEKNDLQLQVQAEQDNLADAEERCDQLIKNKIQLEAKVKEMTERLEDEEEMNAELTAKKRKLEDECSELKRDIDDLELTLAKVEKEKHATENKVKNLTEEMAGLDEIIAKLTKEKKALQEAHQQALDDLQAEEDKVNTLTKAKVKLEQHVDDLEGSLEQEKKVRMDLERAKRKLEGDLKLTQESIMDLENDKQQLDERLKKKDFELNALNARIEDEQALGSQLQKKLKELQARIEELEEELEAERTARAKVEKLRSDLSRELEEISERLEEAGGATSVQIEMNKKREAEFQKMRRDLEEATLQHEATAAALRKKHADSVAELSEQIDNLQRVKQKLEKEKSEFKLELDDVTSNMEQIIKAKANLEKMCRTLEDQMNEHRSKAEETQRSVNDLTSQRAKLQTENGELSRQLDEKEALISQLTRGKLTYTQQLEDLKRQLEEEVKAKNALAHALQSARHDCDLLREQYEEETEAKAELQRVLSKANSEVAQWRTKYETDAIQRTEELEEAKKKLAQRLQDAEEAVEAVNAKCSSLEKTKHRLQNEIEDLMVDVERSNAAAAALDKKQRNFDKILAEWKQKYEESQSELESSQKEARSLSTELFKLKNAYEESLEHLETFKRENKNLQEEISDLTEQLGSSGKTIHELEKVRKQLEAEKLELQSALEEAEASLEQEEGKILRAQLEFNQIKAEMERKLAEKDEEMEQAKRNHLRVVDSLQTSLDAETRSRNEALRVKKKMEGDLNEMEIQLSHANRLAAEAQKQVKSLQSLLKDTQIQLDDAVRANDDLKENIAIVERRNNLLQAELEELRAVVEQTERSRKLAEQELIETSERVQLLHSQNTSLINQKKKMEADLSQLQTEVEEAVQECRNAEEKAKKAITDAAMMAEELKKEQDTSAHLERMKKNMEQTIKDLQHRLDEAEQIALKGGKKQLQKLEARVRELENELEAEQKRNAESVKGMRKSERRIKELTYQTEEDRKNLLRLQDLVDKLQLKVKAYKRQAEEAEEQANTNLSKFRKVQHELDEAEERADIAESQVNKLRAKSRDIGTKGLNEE
Sequence (P85100 whole entry partner): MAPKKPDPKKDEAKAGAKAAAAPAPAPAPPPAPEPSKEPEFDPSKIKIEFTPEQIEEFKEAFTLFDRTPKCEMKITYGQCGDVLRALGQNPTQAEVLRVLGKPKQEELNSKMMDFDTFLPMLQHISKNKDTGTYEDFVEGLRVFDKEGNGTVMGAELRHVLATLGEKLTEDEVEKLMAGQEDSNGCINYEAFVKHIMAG
Sequence (Q3SZE5 whole entry partner): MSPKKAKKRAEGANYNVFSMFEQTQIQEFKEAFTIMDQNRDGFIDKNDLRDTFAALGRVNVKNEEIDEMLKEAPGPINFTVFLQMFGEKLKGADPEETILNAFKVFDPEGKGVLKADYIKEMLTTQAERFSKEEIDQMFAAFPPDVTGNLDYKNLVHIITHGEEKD
readout.label: Ratio CMMII:NMII Ki/EC50

Study these solved cases before continuing.
* Cc1cc2c(cc1C)C(=O)[C@]1(O)CCN(c3ccc4c(c3)CCCC4)C1=N2 [BPN-0028923] | 8.6
* Cc1cc2c(s1)C(=O)[C@]1(O)CCN(c3ccc(C#N)c(C)c3)C1=N2 [BPN-0027072] | 3.1
* COc1ccc(N2CC[C@@]3(O)C(=O)c4cc(F)c(C)cc4N=C23)cc1 [BPN-0026605] | 15.0
* Cc1ncc(N2CC[C@@]3(O)C(=O)c4cc(C)c(C)cc4N=C23)s1 [BPN-0026693] | 6.0
* COc1cccc(N2CC[C@@]3(O)C(=O)c4cc(F)c(C)cc4N=C23)c1 [BPN-0026618] | 3.8
* Cc1cc2c(cc1C(F)(F)F)N=C1N(c3ccc(Cl)cc3)CC[C@@]1(O)C2=O [BPN-0027080] | NMII-sel
* Cc1cc2c(cc1F)C(=O)[C@]1(O)CCN(c3ccccc3)C1=N2 [BPN-0026387] | 5.2
* O=C1c2cc(C(F)(F)F)ccc2N=C2N(c3ccc(Cl)cc3)CC[C@@]12O [BPN-0026544] | NMII-sel

Task: Give Ratio CMMII:NMII Ki/EC50 (Bovine cardiac myosin (Bos taurus (Bovine), UniProt Q9BE39)) of the following compound: Cc1cc2c(cc1F)C(=O)[C@]1(O)CCN(c3cnn(C)c3)C1=N2 [BPN-0026746]
Output: 3.8

Task: Proceed to CCc1cc2c(s1)N=C1N(c3ccc4ncccc4c3)CC[C@@]1(O)C2=O [BPN-0027217]
Output: 20.5

---

experiment: Photostability, percentage remaining undegraded under illumination or in the dark; details: percentage remaining undegraded in the dark, 24 h
I'd be grateful if you could share measured Photostability Dark (24 h) for these entries.
Enter your answer as a number in %; do not include the unit.

Task: Any idea what its Photostability Dark (24 h) is? The compound is Cc1cc(N2CC[C@@]3(O)C(=O)c4cc(C)c(C)cc4N=C23)ccn1 [BPN-0028616]
Output: 89.4

Task: Proceed to O=C1c2cc(C(F)(F)F)ccc2N=C2N(c3ccc4ncccc4c3)CC[C@@]12O [BPN-0027218]
Output: 95.5

Task: Proceed to Cc1ccc2c(c1)C(=O)[C@]1(O)CCN(c3ccc4nc(N)ccc4c3)C1=N2 [BPN-0027494]
Output: 88.4

Task: Proceed to Cc1cc2c(cc1C)C(=O)[C@]1(O)CCN(c3cccc(Br)c3)C1=N2 [BPN-0026660]
Output: 93.8

Task: Proceed to Cc1cc2cc(N3CC[C@@]4(O)C(=O)c5cc(C)c(C)cc5N=C34)ccc2o1 [BPN-0026852]
Output: 85.1

Task: Proceed to Cc1cc2c(cc1C)C(=O)[C@]1(O)CCN(c3ccc4c(c3)OCCN4)C1=N2 [BPN-0028552]
Output: 91.8

Task: Proceed to Cc1ccc2cc(N3CC[C@@]4(O)C(=O)c5cc(C)sc5N=C34)ccc2n1 [BPN-0028898]
Output: 96.4

Task: Proceed to Cc1cc2c(cc1C)C(=O)[C@]1(O)CCN(c3cnc(CO)c(Cl)c3)C1=N2 [BPN-0028649]
Output: 98.4

Task: Proceed to COc1cc(N2CC[C@@]3(O)C(=O)c4cc(C(F)(F)F)ccc4N=C23)ccn1 [BPN-0026533]
Output: 91.7

Task: Proceed to Cc1cc2c(cc1C(F)(F)F)N=C1N(c3ccccc3)CC[C@@]1(O)C2=O [BPN-0026648]
Output: 97.7

Task: Proceed to O=C1c2cc(Cl)ccc2N=C2N(c3ccc4sccc4c3)CC[C@@]12O [BPN-0026546]
Output: 93.5

Task: Proceed to Cc1cc2c(cc1F)C(=O)[C@]1(O)CCN(c3ccc(C)c(Cl)c3)C1=N2 [BPN-0026606]
Output: 95.5

Task: Proceed to Cc1cc2c(cc1C)C(=O)[C@]1(O)CCN(c3cnc(C)c(C)c3)C1=N2 [BPN-0028694]
Output: 98.0

Task: Proceed to O=C1c2cc(Cl)ccc2N=C2N(c3ccc(Cl)cc3)CC[C@@]12O [BPN-0026640]
Output: 96.8

Task: Proceed to COc1ccc(N2CC[C@@]3(O)C(=O)c4cc(C)c(C)cc4N=C23)cc1 [BPN-0026665]
Output: 97.4

Task: Proceed to Cc1cccc(N2CC[C@@]3(O)C(=O)c4cc(C)ccc4N=C23)c1 [BPN-0025100]
Output: 99.0

Task: Proceed to Cc1cc2c(s1)N=C1N(c3cccc(Br)c3)CC[C@@]1(O)C2=O [BPN-0026624]
Output: 92.2

Task: Proceed to Cc1ccc2c(c1)C(=O)[C@]1(O)CCN(c3cnc(C#N)c(Cl)c3)C1=N2 [BPN-0028646]
Output: 98.2

Task: Proceed to Cc1cccc(N2CC[C@@]3(O)C(=O)c4cc(F)c(C)cc4N=C23)c1 [BPN-0026620]
Output: 92.8

Task: Proceed to O=C1c2c(sc3ccccc23)N=C2N(c3ccccc3)CC[C@@]12O [BPN-0026785]
Output: 91.6

Task: Proceed to Cc1ccc2cc(N3CC[C@@]4(O)C(=O)c5cc(C)c(C)cc5N=C34)ccc2n1 [BPN-0027490]
Output: 98.5

Task: Proceed to Cc1ccc2c(c1)C(=O)[C@]1(O)CCN(c3ccc4ncc(N)cc4c3)C1=N2 [BPN-0028652]
Output: 98.5

Task: Proceed to Cc1cc2c(cc1C)C(=O)[C@]1(O)CCN(c3ccc4c(c3)OCCO4)C1=N2 [BPN-0028921]
Output: 97.2

Task: Proceed to O=C1c2cc(C(F)(F)F)ccc2N=C2N(c3ccc4ccoc4c3)CC[C@@]12O [BPN-0026495]
Output: 93.4
